- ASSAY_NOTES: amyloid nucleation score (Sup35N fusion, yeast selection) (log enrichment); library NNK3; higher = more nucleation; inactive = no reads after selection;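 also: zero at mode of non-aggregating sequences after 7 days selection at 30°C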
ASSAY_METRIC: amyloid nucleation score

Some substances with recorded amyloid nucleation score:
INSERT INTO results (substance, result) VALUES
  ('LLLWGTHHSMIYYDGCLIFI', 'inactive'),
  ('NWMDDWSYVVVSF', -1.13),
  ('KVSNTRLVRTINMSCGISYP', 'inactive'),
  ('VLASSKGICPMPSTSEFSFH', 'inactive'),
  ('GSVQTHFLDYGCSPNMDMLV', 'inactive');

Enquiry: Dear colleague, I am looking for the recorded amyloid nucleation score of the following substance: MLMVDDYEYMRFQMAGMVYM
Return: inactive

Enquiry: Dear colleague, I am looking for the recorded amyloid nucleation score of the following substance: RESNNLLFQQVGYLYYSWFY
Return: 1.86
